target: Mycobacterium tuberculosis IspD (MtIspD) (Mycobacterium tuberculosis); assay: Thermal shift assay against MtIspD; assay type: binding
Sequence (P9WKG9 whole entry): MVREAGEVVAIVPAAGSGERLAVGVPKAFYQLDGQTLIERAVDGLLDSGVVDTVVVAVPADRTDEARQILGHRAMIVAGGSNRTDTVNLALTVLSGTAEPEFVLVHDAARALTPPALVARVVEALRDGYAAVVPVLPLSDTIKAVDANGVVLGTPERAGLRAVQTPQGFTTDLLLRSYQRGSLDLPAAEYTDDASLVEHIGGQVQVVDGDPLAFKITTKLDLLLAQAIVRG
Readings of MtIspD melting point change for the listed compounds
Endpoint name: MtIspD melting point change

sample_smiles=Cc1ccc(-c2nnc(-c3cc4ccccc4[nH]3)o2)cc1 recorded_result="0.8 °C"
sample_smiles=c1ccc(-c2ccc(-c3nnc(-c4cc5ccccc5[nH]4)o3)cc2)cc1 recorded_result="1.0 °C"
sample_smiles=C(=C\c1nnc(-c2nc3ccccc3s2)o1)/c1ccccc1 recorded_result="0.5 °C"
sample_smiles=FC(F)(F)c1nnc(-c2cc3ccccc3[nH]2)o1 recorded_result="1.3 °C"
sample_smiles=Clc1ccc(OCc2nnc(-c3nc4ccccc4s3)o2)c(Cl)c1 recorded_result="1.3 °C"
sample_smiles=c1ccc(CCc2nnc(-c3cc4ccccc4[nH]3)o2)cc1 recorded_result="0.8 °C"
sample_smiles=c1ccc(-c2cccc(-c3nnc(-c4cc5ccccc5[nH]4)o3)c2)cc1 recorded_result="0.5 °C"
sample_smiles=FC(F)(F)c1ccc(-c2nnc(-c3nc4ccccc4[nH]3)o2)cc1 recorded_result="1.0 °C"
sample_smiles=Clc1ccc(-c2nnc(-c3nc4ccccc4s3)o2)cc1 recorded_result="1.3 °C"
sample_smiles=FC(F)(F)c1ccc(-c2nnc(-c3nc4ccccc4s3)o2)cc1 recorded_result="0.8 °C"
sample_smiles=Cc1ccc(-c2nnc(-c3nc4ccccc4s3)o2)cc1 recorded_result="0.0 °C"
sample_smiles=Oc1c(Br)cc(Br)cc1-c1cc2ccccc2[nH]1 recorded_result="1.3 °C"
sample_smiles=Clc1cccc(-c2nnc(-c3cc4ccccc4[nH]3)o2)c1 recorded_result="0.5 °C"

* * *

target: AtIspD (Arabidopsis thaliana, UniProt P69834); experiment: University of Hamburg photometric enzymatic inhibition assay AtIspD; assay type: biochemical; details: read-out: AtIspD IC50
Sequence (P69834 62-302): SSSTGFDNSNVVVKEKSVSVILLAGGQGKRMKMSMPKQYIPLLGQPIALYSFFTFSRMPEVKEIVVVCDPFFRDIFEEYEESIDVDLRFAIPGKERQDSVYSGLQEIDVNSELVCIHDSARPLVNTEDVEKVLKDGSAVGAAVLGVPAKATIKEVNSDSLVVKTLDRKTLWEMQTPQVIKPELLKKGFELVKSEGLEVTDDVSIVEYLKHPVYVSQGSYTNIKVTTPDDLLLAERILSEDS
Endpoint name: log10 of IC50 (log10 of the value in µM)

compound="Clc1ccc(OCc2nnc(-c3nc4ccccc4s3)o2)c(Cl)c1 [HGN-333]" recorded_result=2.18
compound="COc1ccc(-c2nnc(-c3cc4ccccc4[nH]3)o2)cc1 [HGN-223]" recorded_result=2.32
compound="c1ccc(-c2cccc(-c3nnc(-c4cc5ccccc5[nH]4)o3)c2)cc1 [HGN-287]" recorded_result=2.70
compound="FC(F)(F)c1ccc(-c2nnc(-c3nc4ccccc4[nH]3)o2)cc1 [HGN-422]" recorded_result=2.40
compound="Oc1c(Br)cc(Br)cc1-c1cc2ccccc2[nH]1 [HGN-340, 2,4-dibromo-6-(1H-indol-2-yl)phenol]" recorded_result=1.70
compound="c1ccc(Cc2nnc(-c3cc4ccccc4[nH]3)o2)cc1 [HGN-221]" recorded_result=2.80
compound="Cc1ccc(-c2nnc(-c3cc4ccccc4[nH]3)o2)cc1 [HGN-242]" recorded_result=2.35

* * *

system: lettuce seeds; experiment: Lettuce leaf assay; format: in vivo; design: key: 0 (no effect); 5(complete inhibition or bleaching); details: 0.2 mM; ranking 0-5
Readings of Germination for the listed compounds
Endpoint name: Germination

sample_smiles=C(=C\c1nnc(-c2nc3ccccc3s2)o1)/c1ccccc1 recorded_result=0
sample_smiles=FC(F)(F)c1ccc(-c2nnc(-c3cc4ccccc4[nH]3)o2)cc1 recorded_result=0
sample_smiles=Clc1cccc(-c2nnc(-c3cc4ccccc4[nH]3)o2)c1 recorded_result=1
sample_smiles=Clc1ccc(-c2nnc(-c3cc4ccccc4[nH]3)o2)cc1 recorded_result=1
sample_smiles=c1ccc(-c2ccc(-c3nnc(-c4cc5ccccc5[nH]4)o3)cc2)cc1 recorded_result=0
